# STUDY_TARGET: T1, LF-Biotin (B. anthracis, UniProt P15917 34-809)
# T1 sequence: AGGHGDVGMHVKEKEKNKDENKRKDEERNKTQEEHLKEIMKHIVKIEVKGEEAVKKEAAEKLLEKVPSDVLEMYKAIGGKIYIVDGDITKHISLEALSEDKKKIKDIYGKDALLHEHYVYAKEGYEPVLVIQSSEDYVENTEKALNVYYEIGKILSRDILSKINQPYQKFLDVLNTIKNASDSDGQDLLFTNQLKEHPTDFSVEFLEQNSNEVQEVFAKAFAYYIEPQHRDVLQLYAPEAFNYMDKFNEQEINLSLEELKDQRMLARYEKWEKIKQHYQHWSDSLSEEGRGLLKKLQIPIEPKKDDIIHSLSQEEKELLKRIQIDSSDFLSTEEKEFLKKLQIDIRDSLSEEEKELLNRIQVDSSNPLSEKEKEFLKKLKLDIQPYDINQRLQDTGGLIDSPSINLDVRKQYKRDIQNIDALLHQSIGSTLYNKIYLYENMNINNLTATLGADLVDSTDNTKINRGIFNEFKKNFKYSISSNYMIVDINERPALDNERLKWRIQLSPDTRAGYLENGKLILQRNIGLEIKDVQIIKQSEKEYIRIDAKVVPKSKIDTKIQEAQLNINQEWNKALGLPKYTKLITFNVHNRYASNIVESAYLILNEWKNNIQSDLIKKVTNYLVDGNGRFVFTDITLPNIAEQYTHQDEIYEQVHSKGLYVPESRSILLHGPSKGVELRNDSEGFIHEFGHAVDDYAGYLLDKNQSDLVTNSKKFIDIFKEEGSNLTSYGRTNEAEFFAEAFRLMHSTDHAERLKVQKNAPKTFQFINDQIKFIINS
# ASSAY_NAME: non-adsorbed phage ELISA, VHH on M13 phage, LF-Biotin vs His-SNAP-Halo-Biotin
PROPERTY: Phage ELISA ratio signal LF/signal His-SNAP-Halo (ratio)
Give the number; ratio is assumed, so skip it.

Specify Phage ELISA ratio signal LF/signal His-SNAP-Halo for clone 1 (VHH) VHH: EVQLQASGGGFVQPGGSLRLSCAASGDTYRWDNMGWFRQAPGKEREFVSAISGLGNMDSYYADSVKGRFTISRDNSKNTVYLQMNSLRAEDTATYYCAQEEKWMSPQYWGQGTQVTVSS and stop.
45.5

Specify Phage ELISA ratio signal LF/signal His-SNAP-Halo for clone 5 (VHH) VHH: EVQLQASGGGFVQPGGSLRLSCAASGTTSFRDTMGWFRQAPGKEREFVSAISWNEGHAHYYADSVKGRFTISRDNSKNTVYLQMNSLRAEDTATYYCASEDMWFNHFYWGQGTQVTVSS and stop.
41.5

Specify Phage ELISA ratio signal LF/signal His-SNAP-Halo for clone 8 (VHH) VHH: EVQLQASGGGFVQPGGSLRLSCAASGSTSSHYDMGWFRQAPGKEREFVSAISYNHDHDTYYADSVKGRFTISRDNSKNTVYLQMNSLRAEDTATYYCAGATATTDGGYQEYWGQGTQVTVSS and stop.
30.2
